Biological target: human Matrix Metalloproteinase-7 (MMP7), MMP7 (gene 4316) (UniProt P09237)
Sequence (P09237 whole entry, looked up): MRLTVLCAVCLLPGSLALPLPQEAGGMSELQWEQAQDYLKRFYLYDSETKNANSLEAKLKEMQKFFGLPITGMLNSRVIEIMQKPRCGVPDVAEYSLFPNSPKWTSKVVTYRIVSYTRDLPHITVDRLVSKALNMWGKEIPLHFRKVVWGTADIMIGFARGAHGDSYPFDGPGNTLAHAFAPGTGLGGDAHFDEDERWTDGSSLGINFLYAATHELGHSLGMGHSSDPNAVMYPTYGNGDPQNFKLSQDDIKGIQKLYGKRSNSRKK
Assay: NVS_ENZ_hMMP7: NovaScreen (NVS) Enzymatic Assay for human Matrix Metalloproteinase-7 (MMP7) (AID 2283183)
Results filed as inconclusive are left out. Activity calls are given as the source filed them. The calls were made as follows: active = hit-call score of the fitted dose curve at least 0.9, where 1 is the maximum; inconclusive = response in the unintended direction; inactive = score below 0.9.
Value Type: AC50

- Compound: "C[C@]12CC[C@@H]3c4ccc(O)cc4C[C@@H](CCCCCCCCCS(=O)CCCC(F)(F)C(F)(F)F)[C@H]3[C@@H]1CC[C@@H]2O (some centres undefined)"
  Result: "inactive"
- Compound: "S=C(S)NCCNC(=S)S.[Mn+2].[S-]C([S-])=NCCN=C([S-])[S-].[Zn+2]"
  Result: "3.74 µM (active)"
- Compound: "Oc1ccc(C(c2ccc(O)cc2)C(Cl)(Cl)Cl)cc1"
  Result: "inactive"
- Compound: "CC1(C)C(C=C(Cl)Cl)C1C(=O)OCc1cccc(Oc2ccccc2)c1 (centres undefined)"
  Result: "inactive"

---

Assay: APR_HepG2_MitoMembPot_24hr: Apredica 24-hour HepG2 Assay for Mitochondrial Membrane Potential (AID 2282911)
Details: imaging, actives raise or lower the signal
The source made the active and inactive calls. Rule for the calls: active = hit-call score of the fitted dose curve at least 0.9, where 1 is the maximum; inactive = score below 0.9.
Outcome codes: Y for active, N for inactive

- Compound: "COC(=O)c1cccc(C)c1S(=O)(=O)NC(=O)Nc1nc(OCC(F)(F)F)nc(N(C)C)n1"
  Group: "N"
- Compound: "O=C(Nc1ccc([N+](=O)[O-])cc1Cl)c1cc(Cl)ccc1O"
  Group: "N"
- Compound: "CC1(C)C(C=C(Cl)Cl)C1C(=O)OCc1cccc(Oc2ccccc2)c1 (centres undefined)"
  Group: "Y"
- Compound: "c1ccc(Nc2ccccc2)cc1"
  Group: "N"
- Compound: "CCCCOC(=O)C(C)Oc1ccc(Oc2ccc(C(F)(F)F)cn2)cc1 (centres undefined)"
  Group: "N"
- Compound: "c1ccc2[nH]c(-c3cscn3)nc2c1"
  Group: "N"
- Compound: "O=C(c1ccccc1)C1CCCCC1"
  Group: "N"
- Compound: "COC(=O)c1ccc(CNS(C)(=O)=O)cc1S(=O)(=O)NC(=O)Nc1nc(OC)cc(OC)n1"
  Group: "N"
- Compound: "C=CCOC(Cn1ccnc1)c1ccc(Cl)cc1Cl (centres undefined)"
  Group: "N"
- Compound: "N[C@@H](Cc1cc(I)c(Oc2ccc(O)c(I)c2)c(I)c1)C(=O)O"
  Group: "N"
- Compound: "O=C(O)C1(C(=O)Nc2ccc(Cl)cc2Cl)CC1"
  Group: "N"
- Compound: "O=C(O)c1ccccc1"
  Group: "N"
- Compound: "COC(=O)c1ccccc1C(=O)O"
  Group: "N"
- Compound: "S=C([S-])NCCNC(=S)[S-].[Mn+2]"
  Group: "N"

---

Experiment: Tanguay_ZF_120hpf_MORT_legacy: (Legacy) Oregon State University Tanguay Lab 120 Hour Post-fertilization zebrafish Assay for Mortality (AID 2283633)
Activity calls are given as the source filed them. The calls were made as follows: active = hit-call score of the fitted dose curve at least 0.9, where 1 is the maximum; inconclusive = response in the unintended direction; inactive = score below 0.9.
Outcomes: 1.0 = active, 0.0 = inactive

- Molecule: "CCCOC(=O)c1ccc(C(=O)OCCC)nc1"
  Group: 1.0
- Molecule: "COc1c(Cl)ccc(Cl)c1C(=O)O"
  Group: 0.0
- Molecule: "CCCCOC(=O)[C@@H](C)Oc1ccc(Oc2ccc(C(F)(F)F)cn2)cc1"
  Group: 0.0
- Molecule: "CCCOC(=O)NCCCN(C)C"
  Group: 0.0
- Molecule: "CCSC(=O)N(CC(C)C)CC(C)C"
  Group: 0.0
- Molecule: "C#C[C@]1(O)CC[C@H]2[C@@H]3CCC4=CC(=O)CC[C@@H]4[C@H]3CC[C@@]21CC"
  Group: 0.0
- Molecule: "N[C@@H](Cc1cc(I)c(Oc2ccc(O)c(I)c2)c(I)c1)C(=O)O"
  Group: 1.0
- Molecule: "OB(O)O"
  Group: 0.0
- Molecule: "CCNc1nc(N)nc(Cl)n1"
  Group: 0.0
- Molecule: "C[C@]12C[C@H](O)[C@H]3[C@@H](CCC4=CC(=O)CC[C@@]43C)[C@@H]1CC[C@@H]2C(=O)CO"
  Group: 0.0
- Molecule: "CCOC(=O)NCCOc1ccc(Oc2ccccc2)cc1"
  Group: 0.0
- Molecule: "CCCCCCC(C)OC(=O)COc1nc(F)c(Cl)c(N)c1Cl (stereo unspecified)"
  Group: 0.0
- Molecule: "CC1(C)C(C=C(Cl)Cl)C1C(=O)OCc1cccc(Oc2ccccc2)c1 (stereo unspecified)"
  Group: 0.0
- Molecule: "CC(C)CCCCCCc1ccc(O)cc1"
  Group: 0.0
- Molecule: "CCCCCOC(=O)COc1cc(N2C(=O)C3=C(CCCC3)C2=O)c(F)cc1Cl"
  Group: 0.0
- Molecule: "Cc1nn(C)c(Oc2ccccc2)c1C=NOCc1ccc(C(=O)OC(C)(C)C)cc1"
  Group: 1.0
- Molecule: "O=C(Nc1ccc([N+](=O)[O-])cc1Cl)c1cc(Cl)ccc1O"
  Group: 0.0
- Molecule: "CCCCOCCOCCOCc1cc2c(cc1CCC)OCO2"
  Group: 1.0
- Molecule: "O=C(c1ccccc1)C1CCCCC1"
  Group: 0.0
- Molecule: "CSC(=O)c1cccc2nnsc12"
  Group: 0.0
- Molecule: "CCCN(CCC)c1c([N+](=O)[O-])cc(C(F)(F)F)c(N)c1[N+](=O)[O-]"
  Group: 0.0
- Molecule: "O=C(O)c1ccccc1"
  Group: 0.0
- Molecule: "COC(=O)c1ccccc1C(=O)O"
  Group: 0.0
- Molecule: "CCOC(=O)C(C)Oc1ccc(Oc2nc3ccc(Cl)cc3o2)cc1 (stereo unspecified)"
  Group: 0.0
- Molecule: "CCN(CC)C(=O)c1cccc(C)c1"
  Group: 0.0
- Molecule: "CN(C)C(=O)Nc1ccc(Cl)c(Cl)c1"
  Group: 0.0

---

Read-out: Lipase C (LIPC), LIPC (gene 3990)
Assay: LTEA_HepaRG_LIPC: Life Technologies and Expression Analysis (LTEA) Assay for Lipase C (LIPC) using HepaRG (AID 2283514)
Details: mRNA level, 48 h; actives raise or lower the signal
Activity calls are given as the source filed them. How the source made its calls: active means hit-call score of the fitted dose curve at least 0.9, where 1 is the maximum; inactive means score below 0.9.
Outcomes: active, inactive

- Compound: "CCN(Cc1c(F)cccc1Cl)c1c([N+](=O)[O-])cc(C(F)(F)F)cc1[N+](=O)[O-]"
  Group: "active"
- Compound: "CCOC(=O)C(C)Oc1ccc(Oc2cnc3cc(Cl)ccc3n2)cc1 (configuration not stated)"
  Group: "inactive"
- Compound: "COc1c(Cl)ccc(Cl)c1C(=O)O"
  Group: "inactive"
- Compound: "CCNc1nc(N)nc(Cl)n1"
  Group: "inactive"
- Compound: "O=C(c1ccccc1)C1CCCCC1"
  Group: "inactive"
- Compound: "Cc1nn(C)c(Oc2ccccc2)c1C=NOCc1ccc(C(=O)OC(C)(C)C)cc1"
  Group: "active"
- Compound: "C#CCOC(=O)[C@@H](C)Oc1ccc(Oc2ncc(Cl)cc2F)cc1"
  Group: "inactive"
- Compound: "CCSC(=O)N(CC(C)C)CC(C)C"
  Group: "inactive"
- Compound: "CCCN(CCC)C(=O)SCC"
  Group: "inactive"
- Compound: "CCCCC(CC)CN1C(=O)C2C3C=CC(C3)C2C1=O (configuration not stated)"
  Group: "active"
- Compound: "CCCCCOC(=O)COc1cc(N2C(=O)C3=C(CCCC3)C2=O)c(F)cc1Cl"
  Group: "inactive"
- Compound: "CCCCOC(=O)[C@@H](C)Oc1ccc(Oc2ccc(C(F)(F)F)cn2)cc1"
  Group: "inactive"

---

Assay: CEETOX_H295R_DOC: CeeTox H295R High-throughput Steroidogenesis Assay for DOC (AID 2283439)
Settings: actives raise or lower the signal
Procedure: CEETOX_H295R is a cell-based, multiplexed-readout assay that uses H295R, a human adrenal gland cell line, with measurements taken at 48 hours after chemical dosing in a 96-well plate.CEETOX_H295R_DOC is one of 23 assay component(s) measured or calculated from the CEETOX_H295R assay. […] This assay endpoint, CEETOX_H295R_DOC, was analyzed with bidirectional fitting relative to DMSO as the negative control and baseline of activity. […]
Activity calls are given as the source filed them. How the source made its calls: active means hit-call score of the fitted dose curve at least 0.9, where 1 is the maximum; inactive means score below 0.9.
Possible outcomes: 1 for active, 0 for inactive

- Compound: "CSC(=O)c1cccc2nnsc12"
  Group: 0
- Compound: "Oc1ccc(C(c2ccc(O)cc2)C(Cl)(Cl)Cl)cc1"
  Group: 1
- Compound: "CCCCCOC(=O)COc1cc(N2C(=O)C3=C(CCCC3)C2=O)c(F)cc1Cl"
  Group: 0
- Compound: "C#C[C@]1(O)CC[C@H]2[C@@H]3CCC4=CC(=O)CC[C@@H]4[C@H]3CC[C@@]21CC"
  Group: 0
- Compound: "C=CCOC(Cn1ccnc1)c1ccc(Cl)cc1Cl (configuration not stated)"
  Group: 0
- Compound: "CCOC(=O)C(C)Oc1ccc(Oc2cnc3cc(Cl)ccc3n2)cc1 (configuration not stated)"
  Group: 0
- Compound: "CC1(C)C(C=C(Cl)Cl)C1C(=O)OCc1cccc(Oc2ccccc2)c1 (configuration not stated)"
  Group: 0
- Compound: "CCCCC(CC)CN1C(=O)C2C3C=CC(C3)C2C1=O (configuration not stated)"
  Group: 0
- Compound: "C#CCOC(=O)[C@@H](C)Oc1ccc(Oc2ncc(Cl)cc2F)cc1"
  Group: 1
- Compound: "S=C(S)NCCNC(=S)S.[Mn+2].[S-]C([S-])=NCCN=C([S-])[S-].[Zn+2]"
  Group: 0
- Compound: "CCOC(=O)c1ccc(O)cc1"
  Group: 1
- Compound: "CCCN(CCC)C(=O)SCC"
  Group: 0
